test_protocol: Cytotoxicity against African green monkey Vero E6 cells assessed as maximum non-toxic concentration after 6 hrs by MTT assay
Type: cell-based
applied_conditions: chlorocebus aethiops
Recorded MNTC at 6 h by entry
parameter: MNTC at 6 h (µM)

>>> print(df.to_string())
                                   compound    parameter  recorded_measurement
0  CCC[C@H](NC(=O)[C@@H]1[C@H]2CCC[C@H]2CN1C(=O)[C@@H](NC(=O)[C@@H](NC(=O)c1cnccn1)C1CCCCC1)C(C)(C)C)C(=O)C(=O)NC1CC1  MNTC at 6 h                  72.5
1  CC(C)(C)NC(=O)N[C@H](C(=O)N1C[C@H]2[C@@H]([C@H]1C(=O)NC(CC1CCC1)C(=O)C(N)=O)C2(C)C)C(C)(C)C (some centres not stated)  MNTC at 6 h                  72.5

---

Entries and their MNTC at 6 h
test_protocol: Cytotoxicity against mouse LR7 cells assessed as maximum non-toxic concentration after 6 hrs by MTT assay
Type: cell-based
parameter: MNTC at 6 h (µM)

In [3]: df
Out[3]:
                                   compound    parameter  units_of_measure  recorded_measurement
0  CC(C)(C)NC(=O)N[C@H](C(=O)N1C[C@H]2[C@@H]([C@H]1C(=O)NC(CC1CCC1)C(=O)C(N)=O)C2(C)C)C(C)(C)C (some centres not stated)  MNTC at 6 h                µM                  72.5
1  CCC[C@H](NC(=O)[C@@H]1[C@H]2CCC[C@H]2CN1C(=O)[C@@H](NC(=O)[C@@H](NC(=O)c1cnccn1)C1CCCCC1)C(C)(C)C)C(=O)C(=O)NC1CC1  MNTC at 6 h                µM                  72.5

---

test_protocol: Cmax in human
Assay type: ADME
parameter: Cmax

compound	parameter	recorded_measurement
CC(C)(C)NC(=O)N[C@H](C(=O)N1C[C@H]2[C@@H]([C@H]1C(=O)NC(CC1CCC1)C(=O)C(N)=O)C2(C)C)C(C)(C)C (stereo partly specified) [BOCEPREVIR]	Cmax	1720 ng/mL
